Where do the numbers come from? From ChEMBL document CHEMBL4402516.

# system_name: Polyunsaturated fatty acid 5-lipoxygenase (Homo sapiens)
# Sequence (P09917 whole entry): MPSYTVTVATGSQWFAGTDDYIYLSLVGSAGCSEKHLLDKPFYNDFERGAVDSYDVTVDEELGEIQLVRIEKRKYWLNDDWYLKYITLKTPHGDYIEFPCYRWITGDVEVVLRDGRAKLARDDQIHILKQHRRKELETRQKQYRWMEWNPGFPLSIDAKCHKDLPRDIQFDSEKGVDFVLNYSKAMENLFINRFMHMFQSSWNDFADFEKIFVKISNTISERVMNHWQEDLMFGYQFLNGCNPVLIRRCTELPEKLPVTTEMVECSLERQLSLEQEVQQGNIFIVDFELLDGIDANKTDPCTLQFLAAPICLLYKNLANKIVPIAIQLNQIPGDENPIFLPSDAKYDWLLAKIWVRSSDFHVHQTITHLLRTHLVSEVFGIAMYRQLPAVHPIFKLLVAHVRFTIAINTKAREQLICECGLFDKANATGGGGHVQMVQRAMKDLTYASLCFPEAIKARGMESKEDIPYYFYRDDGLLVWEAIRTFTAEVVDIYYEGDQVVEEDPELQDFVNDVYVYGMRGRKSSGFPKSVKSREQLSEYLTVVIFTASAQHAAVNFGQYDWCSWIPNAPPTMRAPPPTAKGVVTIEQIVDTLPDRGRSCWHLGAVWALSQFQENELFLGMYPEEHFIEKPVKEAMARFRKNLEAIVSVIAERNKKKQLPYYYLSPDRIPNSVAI
# run_description: Inhibition of human PMNL 5-LOX using arachidonic acid as substrate after 5 mins by HPLC method
property_measured: IC50 (µM)
Answers are plain numbers, in µM.

The cases that follow already have their IC50 on record.
INSERT INTO assay_data (compound, unit_annotation, value_measured) VALUES
  ('O=C(/C=C/C=C/c1ccc2c(c1)OCO2)N1CCCCC1', 'µM', 54),
  ('O=C/C=C/c1ccccc1', 'µM', 35),
  ('C=CCSCC=C [DIALLYL SULFIDE]', 'µM', 83),
  ('COc1cc(CNC(=O)CCCC/C=C/C(C)C)ccc1O', 'µM', 56);

Incoming: Which IC50 is listed for C=CCc1ccc(O)c(OC)c1 ?
Outgoing: 26
